Values from PubChem BioAssay (NCI)

Tested on: HCT-15 colon
Test: NCI-60 one-dose screen, 48 h
Details: 10 µM unless noted
This is part of a sample that, as a whole, favours compounds with a hit. Of some 83,000 tested, about 20% had one in any assay. Activity calls are given as the source filed them. How the source made its calls: active means growth percent below 10; inactive means the rest.
Outcome (select one): yes (1) (active), no (0) (inactive)

Task item: For O=C1Nc2ccccc2/C1=N/N=C/c1ccsc1 , which call appears in the assay record?
Reply: no (0)

Task item: Also COc1cc2c(=O)n(CCCn3ccnc3)c3c4cc5c(cc4ccc3c2cc1OC)OCO5 , if possible.
Reply: no (0)

Task item: Also, O=C(CCc1nc(-c2cccc(Cl)c2)no1)Nc1ccccn1 please.
Reply: no (0)

Task item: Same again, this time with CCOC(=O)C(=CNc1ccccc1[N+](=O)[O-])C(=O)OCC
Reply: no (0)

Task item: Then what about the compound CCOc1cc(N)ccc1C(=O)NCCCN(CC)CC ?
Reply: no (0)

Task item: # iterate: O=C(CC12CC3CC(CC(C3)C1)C2)NCCOCCOCCOCCNC(=O)c1cc2c(o1)C(=O)c1ccccc1C2=O
Reply: yes (1)

Task item: Try this compound too: Cn1ccc(Cc2cnc(N)s2)n1
Reply: no (0)

Task item: Also CCCCCOC(=O)c1ccc(NC(=O)CNCC(C)C)cc1 ?
Reply: no (0)

Task item: Repeat for the following compound: CN(C)c1cnccn1
Reply: no (0)

Task item: Please do the same for CCOC(=O)c1c(C)nc2c(c1N)/C(=C/c1ccc(OC)cc1)C(=O)N2Cc1ccc(F)cc1 as well.
Reply: yes (1)

Task item: Next entry: Nc1nc(I)c2ncn(C3OC(CO)C(O)C3O)c2n1 (stereo not drawn)
Reply: no (0)

Task item: Proceed to N#C/C(=C\c1ccc(Br)cc1)n1nnc2ccccc21
Reply: yes (1)

Task item: Then what about the compound CSc1nc(N)c(CNC(C)c2ccccc2)c(=O)n1C (stereo not drawn) ?
Reply: no (0)

###

System: HCT-116 colon
Assay: NCI-60 one-dose screen, 48 h (100 = growth as untreated, 0 = no growth, -100 = all killed)
Conditions: 10 µM unless noted
About 83,000 compounds went through this panel and 20% of them were active in at least one assay; those are over-represented in the sample as a whole.
quantity.measured: growth (%)
Output spec: scalar in %, unitless text.

Task item: // returns reported growth for input COc1ccc(-c2nnc(-c3ccc4c(c3)nc(-c3ccccc3)n4C3CCCCC3)o2)cc1
Reply: 34.7

Task item: Also, COc1ccc(N(C)c2nc(Cl)nc3cnn(C)c23)cc1 please.
Reply: -18.4

Task item: Follow-up entry: Cc1ccc(O)c(C(=O)c2ccccc2Cl)c1
Reply: 99

Task item: Same for CNC=O
Reply: 95.8

Task item: Again, but for C=C1C(=O)O[C@H]2[C@H]1CC/C(COC(=O)/C=C\C(=O)NCc1ccc(Cn3c(=O)sn(CCCI)c3=O)cc1)=C\CC[C@@]1(C)O[C@@H]21
Reply: -48.8

Task item: How about this molecule: NC(=S)N/N=C/C(=O)O
Reply: 6.98

Task item: COc1ccc(-c2cn(-c3cccc(C(=O)/C=C/c4cc(OC)c(OC)c(OC)c4)c3)c(=O)[nH]2)cc1 , same question.
Reply: -91.9

Task item: Also C=C(C)[C@@H]1CC[C@]2(CNCCO)CC[C@]3(C)[C@H](CC[C@@H]4[C@@]5(C)CCC(N)[C@@](C)(CO)[C@@H]5CC[C@]43C)[C@@H]12 (some centres undefined) , if possible.
Reply: -90.2

Task item: Thanks! And CC(C)CCC[C@@H](C)[C@H]1CCC2C3=CCn4c(=O)ccc(=O)n4C3CC[C@@]21C (some centres undefined) ?
Reply: -100
